# tgt: GlcNAc(b1-4)Gal(b1-4)GlcNAc
# test.details: glycan array binding signal (z-score within array); higher = stronger binding
# measurement.setup: glycan notation: IUPAC condensed, linker removed
The entries come from a sample that favours the strongest signals as a whole.
Exercise: for every item that follows, state its recorded glycan array binding signal (z-score).
When you answer, write just the number.

Q) Specify glycan array binding signal (z-score) for CLECb-Precomplexed (Mus musculus), P43025 (protein) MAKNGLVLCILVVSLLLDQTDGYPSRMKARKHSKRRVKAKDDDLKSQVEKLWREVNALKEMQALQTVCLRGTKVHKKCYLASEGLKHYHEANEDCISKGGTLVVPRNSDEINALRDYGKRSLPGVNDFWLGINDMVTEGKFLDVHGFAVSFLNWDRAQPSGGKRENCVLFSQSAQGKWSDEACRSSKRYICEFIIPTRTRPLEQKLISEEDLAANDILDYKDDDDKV and stop.
A) -0.159

Q) Specify glycan array binding signal (z-score) for AT5G24760(45) (Arabidopsis thaliana), Q8LEB2 (protein) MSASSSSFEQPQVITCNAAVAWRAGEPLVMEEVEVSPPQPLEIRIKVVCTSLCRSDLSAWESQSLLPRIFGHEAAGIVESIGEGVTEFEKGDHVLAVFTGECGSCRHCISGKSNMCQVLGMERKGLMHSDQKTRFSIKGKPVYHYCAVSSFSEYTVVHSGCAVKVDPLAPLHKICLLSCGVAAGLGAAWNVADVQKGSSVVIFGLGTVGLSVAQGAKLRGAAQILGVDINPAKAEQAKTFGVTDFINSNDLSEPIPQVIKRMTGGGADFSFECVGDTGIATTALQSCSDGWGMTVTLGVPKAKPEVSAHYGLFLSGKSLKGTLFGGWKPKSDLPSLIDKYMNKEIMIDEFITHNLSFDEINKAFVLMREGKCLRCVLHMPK and stop.
A) 2.53
